Test system: MSTO-211H (Mesothelioma)
Experiment: combination Emax (second highest fraction inhibited in the dose matrix, 72 h); higher = more inhibition; extreme values may be limits of the assay
Lab note: class by combination Emax, see low (below 0.4), intermediate (0.4 to below 0.7), high (0.7 or more)

For orientation, consider the following solved cases.
COc1cccc(OCCCN)c1-c1cc(Nc2cnc(C#N)cn2)n[nH]1 [Prexasertib] + C[C@@H]1COCCN1C2=NC(=NC(=C2)C3(CC3)[S@](=N)(=O)C)C4=C5C=CNC5=NC=C4 [AZD6738] (first compound max 1 µM, 7x7, partner max 10 µM)	high
C[C@@H](Nc1cc(F)cc(F)c1)c1cc(C(=O)N(C)C)cc2c(=O)cc(N3CCOCC3)oc12 [AZD8186] + CC(=O)c1c(C)c2cnc(Nc3ccc(N4CCNCC4)cn3)nc2n(C2CCCC2)c1=O [Palbociclib] (first compound max 10 µM, 7x7, partner max 10 µM)	intermediate
COc1cc2c(cc1OCCCCCOc1cc3c(cc1OC)C(=O)N1C=C(C)C[C@H]1C=N3)N=C[C@@H]1CC(C)=CN1C2=O [SG3199] + O=C(c1cc(Cc2n[nH]c(=O)c3ccccc23)ccc1F)N1CCN(C(=O)C2CC2)CC1 [Olaparib] (first compound max 0.001 µM, 7x7, partner max 10 µM)	low

Band of COc1cccc(OCCCN)c1-c1cc(Nc2cnc(C#N)cn2)n[nH]1 [Prexasertib] + O=C(c1cc(Cc2n[nH]c(=O)c3ccccc23)ccc1F)N1CCN(C(=O)C2CC2)CC1 [Olaparib] (first compound max 1 µM, 7x7, partner max 10 µM) ?
high

Band of COc1nnc2ccc(N3CCC(c4ccc(OCCN5CCN(C)C(=O)[C@H]5C)cc4)CC3)nn12 [AZD5153] + C[C@@H]1COCCN1C2=NC(=NC(=C2)C3(CC3)[S@](=N)(=O)C)C4=C5C=CNC5=NC=C4 [AZD6738] (first compound max 1 µM, 7x7, partner max 10 µM) ?
low

Band of CC1(C)CCC(CN2CCN(c3ccc(C(=O)NS(=O)(=O)c4ccc(NCC5CCOCC5)c([N+](=O)[O-])c4)c(Oc4cnc5[nH]ccc5c4)c3)CC2)=C(c2ccc(Cl)cc2)C1 [Venetoclax] + Cc1cc2ncnn2cc1Nc1ncc2c(n1)n(C1CCOCC1)c(=O)n2C [AZD7648] (first compound max 1 µM, 7x7, partner max 10 µM) ?
low

Band of CCc1c2c(nc3ccc(O)cc13)-c1cc3c(c(=O)n1C2)COC(=O)[C@]3(O)CC [SN-38] + O=C(c1cc(Cc2n[nH]c(=O)c3ccccc23)ccc1F)N1CCN(C(=O)C2CC2)CC1 [Olaparib] (first compound max 0.3 µM, 7x7, partner max 10 µM) ?
intermediate

Band of CC1(C)CCC(CN2CCN(c3ccc(C(=O)NS(=O)(=O)c4ccc(NCC5CCOCC5)c([N+](=O)[O-])c4)c(Oc4cnc5[nH]ccc5c4)c3)CC2)=C(c2ccc(Cl)cc2)C1 [Venetoclax] + COc1cc(Nc2ncc3c(n2)-c2ccc(Cl)cc2C(c2c(F)cccc2OC)=NC3)ccc1C(=O)O [Alisertib] (first compound max 1 µM, 7x7, partner max 10 µM) ?
high

Band of C[C@@H](Nc1cc(F)cc(F)c1)c1cc(C(=O)N(C)C)cc2c(=O)cc(N3CCOCC3)oc12 [AZD8186] + C1CN(CCC1(C(=O)N[C@@H](CCO)C2=CC=C(C=C2)Cl)N)C3=NC=NC4=C3C=CN4 [AZD5363] (first compound max 10 µM, 7x7, partner max 10 µM) ?
low

Band of NC1(C(=O)N[C@@H](CCO)c2ccc(Cl)cc2)CCN(c2ncnc3[nH]ccc23)CC1 [Capivasertib] + C[C@@H]1COCCN1C2=NC(=NC(=C2)C3(CC3)[S@](=N)(=O)C)C4=C5C=CNC5=NC=C4 [AZD6738] (first compound max 10 µM, 7x7, partner max 10 µM) ?
low

Band of CN(C)CCCOc1ccc(-c2ccc3ncc4c(c3c2)n(C2CCOCC2)c(=O)n4C)cn1 [AZD0156] + C=CCn1c(=O)c2cnc(Nc3ccc(N4CCN(C)CC4)cc3)nc2n1-c1cccc(C(C)(C)O)n1 [AZD1775] (first compound max 1 µM, partner max 1 µM) ?
intermediate

Band of CCN(CCO)CCCOc1ccc2c(Nc3cc(CC(=O)Nc4cccc(F)c4)[nH]n3)ncnc2c1 [AZD2811] + C[C@@H]1COCCN1C2=NC(=NC(=C2)C3(CC3)[S@](=N)(=O)C)C4=C5C=CNC5=NC=C4 [AZD6738] (first compound max 1 µM, 7x7, partner max 10 µM) ?
high
